experiment: Human Microsome Stability Assay; assay type: in vitro ADME; conditions: human, liver microsomes; 1 μM compound, 0.5 mg/mL liver microsomal protein, 1 mM NADPH, pH 7.4, 37° C., 0-30 minutes; read-out: Clearance of Human microsome
Please use y whenever CLint scaled at 1 µM is not below 10 mL/min/kg, and n whenever it is.

Consider the worked cases shown below.
O=C1O[C@@H](CO)[C@H]2COc3cc(S(=O)(=O)N4CCN(c5cc(C(F)(F)C6CNC6)cc(Cl)n5)CC4)ccc3N12 [Example 035] = y
CC(=O)N1CCc2cc(S(=O)(=O)N3CCN(c4cc(Cl)cc(C(F)(F)F)c4)CC3)ccc21 [Compound F-1, reference compound] = y
NCCN(CCN)CC(=O)N1CCC(C(F)(F)c2cc(Cl)nc(N3CCN(S(=O)(=O)c4ccc5c(c4)OC[C@@H]4[C@H](CO)OC(=O)N54)CC3)c2)CC1 [Example 052] = n

Query block: Say whether Cc1cc(C(F)(F)F)nc(N2CCN(S(=O)(=O)c3ccc4c(c3)OC[C@H]3[C@@H](CN)OC(=O)N43)CC2)n1 (relative stereo) [Example 006] shows CLint scaled at 1 µM of 10 mL/min/kg or more.
Result block: y

====

experiment: Human Microsome Stability Assay; assay type: in vitro ADME; conditions: human, liver microsomes; 1 μM compound, 0.5 mg/mL liver microsomal protein, 1 mM NADPH, pH 7.4, 37° C., 0-30 minutes; read-out: Clearance of Human microsome
CLint scaled at 1 µM values by entry
Give the quantity in mL/min/kg, number only.

NCCCNC(=O)[C@H]1CC[C@H](C(F)(F)c2cc(Cl)nc(N3CCN(S(=O)(=O)c4ccc5c(c4)OCC4C(N)CC(=O)N54)CC3)c2)CC1 (stereo partly shown) [Example 045] = 8.9
NCCCN(CCCN)C(=O)[C@H]1CC[C@H](C(F)(F)c2cc(Cl)nc(N3CCN(S(=O)(=O)c4ccc5c(c4)OC[C@H]4[C@H](CO)OC(=O)N54)CC3)c2)CC1 [Example 048] = 12.9
O=C1O[C@H](CO)[C@@H]2COc3cc(S(=O)(=O)N4CCN(c5cc(C(F)(F)C6CCCNC6)cc(Cl)n5)CC4)ccc3N12 (relative stereo) [Example 033] = 13.6

Now look at this entry.
Query block: # get_value(readout='CLint scaled at 1 µM', item= Cc1cc(C(F)(F)F)nc(N2CCN(S(=O)(=O)c3ccc4c(c3)OC[C@H]3[C@@H](CN5CC(N)C5)OC(=O)N43)CC2)n1 [Example 025] )
Result block: 12.2
